Cited source: the supplement of paper PMC10567573

B1: SNAP91 (parent)
chain: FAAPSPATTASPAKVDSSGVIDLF

Variants of: B1
Assay: protein stability index of a GFP-peptide fusion (GPS, HEK-293T) (PSI 1-6); higher = more stable;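 also: lentivirally expressed fusions sorted by FACS into six bins by GFP to DsRed ratio, PSI derived from sequencing read proportions per bin multiplied by bin number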
Conditions: c terminus: a fixed tail appended
Record YES whenever protein stability index is at 2 or higher; record NO when lower.

P6Q = YES
A3F = NO
P4Q = YES
A3E = YES

Request: Would you say V20C shows protein stability index at minimum 2?
Result: YES

Request: Check if protein stability index >= 2 (inclusive). Item: A10W
Result: YES

Request: # check: protein stability index of T8A is greater than or equal to 2
Result: YES

Request: Is it the case that S17V has protein stability index reaching or exceeding 2?
Result: YES

Request: Answer whether protein stability index of S18Y is greater than or equal to 2.
Result: NO

Request: Entry A2C : is its protein stability index no less than 2?
Result: NO

Request: Entry V15M : is its protein stability index no less than 2?
Result: YES
